Reference for the values: patent US7786155B2

# SYSTEM TESTED: recombinant human NPY Y2 receptors (Homo sapiens)
# Construct: expressed in transfected cells; host or cells: CHO-C4 cells (membrane preparation)
# Sequence (P49146 whole entry): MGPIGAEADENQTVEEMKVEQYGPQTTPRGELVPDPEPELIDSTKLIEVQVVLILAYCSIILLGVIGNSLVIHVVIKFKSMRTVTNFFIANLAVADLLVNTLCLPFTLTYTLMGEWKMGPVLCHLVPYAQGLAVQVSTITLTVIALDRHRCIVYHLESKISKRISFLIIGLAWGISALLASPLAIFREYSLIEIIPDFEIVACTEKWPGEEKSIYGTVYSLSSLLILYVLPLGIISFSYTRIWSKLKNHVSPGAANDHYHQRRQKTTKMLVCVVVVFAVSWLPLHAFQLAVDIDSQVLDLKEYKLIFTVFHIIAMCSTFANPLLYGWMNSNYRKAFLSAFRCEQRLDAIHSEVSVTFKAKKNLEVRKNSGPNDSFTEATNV
# ASSAY: Scintillation proximity [35S]GTPγS binding assay (inhibition of 0.5 nM NPY-stimulated [35S]GTPγS binding)
# Assay type: biochemical
# RUN CONDITIONS: 10 μM compound, membranes from CHO-C4 cells expressing recombinant human NPY Y2 receptors, read-out: [%] inhibiton at 10 μM
Respond with Fulfilled for inhibition at 10 µM values of 70% and above, Not fulfilled for values below.

Observe how each entry below is paired with its result.
CC1=NC(c2ccccc2)(c2ccccc2)C(=O)N1CC(=O)c1ccc(NC(=O)c2ccccc2F)cc1	Not fulfilled
CCCC1(c2ccccc2)N=C(C)N(CC(=O)c2ccc(NC(=O)Nc3c(C)noc3C)cc2F)C1=O (racemic)	Fulfilled
CCCC1(c2ccc(F)cc2)N=C(C)N(CC(=O)c2ccc(NC(=O)C3CCOC3)cc2)C1=O (centres unmarked)	Not fulfilled
CCCC1(c2ccc(F)cc2)N=C(C)N(CC(=O)c2ccc(NC(=O)Cc3c(C)noc3C)cc2F)C1=O (single isomer, unassigned; (-))	Fulfilled
CC1=NC(c2ccccc2)(c2ccccc2)C(=O)N1CC(=O)c1ccc(C(=O)NC(C)C(C)C)cc1 (racemic)	Not fulfilled
CCC(CC)C(=O)Nc1ccc(C(O)CN2C(=O)C(c3ccccc3)(c3ccccc3)N=C2C)cc1 (racemic)	Not fulfilled
CCCC1(c2ccccc2)N=C(C)N(CC(=O)c2ccc(NC(=O)Nc3c(C)noc3C)cc2)C1=O (racemic)	Fulfilled
CCC(CC)C(=O)Nc1ccc(CCN2C(=O)C(c3ccccc3)(c3ccccc3)N=C2C)cc1	Not fulfilled
CCCC1(c2ccc(F)cc2)N=C(C)N(CC(=O)c2ccc(NC(=O)Nc3c(C)noc3C)cc2)C1=O (racemic)	Fulfilled

# next compound below
Dear colleague, could you confirm whether COc1ccccc1C(=O)Nc1ccc(C(=O)CN2C(=O)C(c3ccccc3)(c3ccccc3)N=C2C)cc1 has inhibition at 10 µM at or above 70%? Not fulfilled
